biological target: Lipopolysaccharide (LPS); test: Dissociation constant against lipopolysaccharide

[
  {
    "cpd smiles": "CCCCCCCCCCCCCCCCC(=O)NCCCNCCCNCCCCNCCCN",
    "Kd": "1210 nM"
  }
]
